Would you kindly list melting point for each of these molecules?

Problem: Would you mind telling me what melting point value was observed for "COc1cccc(-c2nc3cc(C4=NNC(=O)SC4)ccc3n2CC(C)C)c1" ?
Result: 207 to 209 °C

Problem: Would you mind telling me what melting point value was observed for CCCC1SC(=O)NN=C1c1ccc2c(c1)nc(-c1cccc(C(F)(F)F)c1)n2C (centres unmarked) ?
Result: 190 to 192 °C

Problem: Would you mind telling me what melting point value was observed for "CCn1c(-c2cccc(F)c2)nc2cc(C3=NNC(=O)SC3)ccc21" ?
Result: 214 to 216 °C

Problem: Would you mind telling me what melting point value was observed for "CCn1c(-c2cccc(OC)c2)nc2cc(C3=NNC(=O)SC3)ccc21" ?
Result: 221 to 223 °C

Problem: Would you mind telling me what melting point value was observed for COc1cccc(-c2nc3cc(C4=NNC(=O)SC4C)ccc3n2CC(C)C)c1 (centres unmarked) ?
Result: 100 to 105 °C

###

# Measured on: recombinant human liver fructose-1,6-bisphosphatase (Homo sapiens, UniProt P09467)
# Sequence (P09467 whole entry): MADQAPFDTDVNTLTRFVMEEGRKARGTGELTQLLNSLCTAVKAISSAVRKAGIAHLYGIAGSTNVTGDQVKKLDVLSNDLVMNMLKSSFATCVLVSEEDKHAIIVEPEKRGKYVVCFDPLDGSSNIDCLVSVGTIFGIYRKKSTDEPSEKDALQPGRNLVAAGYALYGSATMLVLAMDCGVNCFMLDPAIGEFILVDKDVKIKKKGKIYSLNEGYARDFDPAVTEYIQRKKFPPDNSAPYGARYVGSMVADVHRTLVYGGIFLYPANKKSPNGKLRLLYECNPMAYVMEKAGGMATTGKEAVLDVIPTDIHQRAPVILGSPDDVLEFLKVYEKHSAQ
# Procedure summary: Inhibition of recombinant human liver fructose-1,6-bisphosphatase (spectrophotometric coupled enzyme assay)
# Conditions used: 0.167 mM fructose-1,6-bisphosphate, pH 7.5, room temperature, 30 minutes at 340 nm, read-out: Inhibition of human F-1,6-BPase IC50
Where a name gives a salt, the structure may show the parent alone.
Would you kindly list pIC50 for each of these molecules?
Value format note: pIC50 is -log10 of concentration (mol/L); just state the number.

Problem: Would you mind telling me what pIC50 value was observed for CCCN1N=C(c2ccc3c(c2)nc(-c2cccc(F)c2)n3C)C(C)SC1=O (centres unmarked) [Example 12-6] ?
Result: 5.07

Problem: Would you mind telling me what pIC50 value was observed for COc1cccc(-c2nc3cc(C4=NN(C)C(=O)SC4)ccc3n2C2CCCCCC2)c1 [Example 12-7] ?
Result: 4.44

Problem: Would you mind telling me what pIC50 value was observed for CC1SC(=O)NN=C1c1ccc2[nH]c(-c3ccc(-n4ccnc4)cc3)nc2c1 (centres unmarked) [Example 26-4, dihydrochloride] ?
Result: 5.44

Problem: Would you mind telling me what pIC50 value was observed for CC1SC(=O)N(C(C)C)N=C1c1ccc2c(c1)nc(-c1cccc(F)c1)n2C (centres unmarked) [Example 12-3] ?
Result: 5.15

Problem: Would you mind telling me what pIC50 value was observed for COc1cc(-c2nc3cc(C4=NNC(=O)SC4C)ccc3[nH]2)ccc1[S+](C)[O-] (centres unmarked) [Example 26-3, hydrochloride] ?
Result: 5.19
